Recorded Hemolysis percent, 100 μM, one value per entry.
# Test system: human red blood cells
# test_protocol: Hemolytic activity
# Assay type: cell-based
# protocol_conditions: red cells of human, 18 h, 100
# Description: Human red blood cells (Zenbio, North Carolina, USA) and peptides were separately diluted in PBS (blood concentration, 8%). The blood cell and peptide solutions were then mixed in 96-well polyethylene plates (SPL, Gyeonggi-do, Korea) and incubated for 18 h at 37 °C. […] Hemolysis levels were determined by measuring the absorbance at 540 nm with a SpectraMax plate spectrophotometer (Molecular Devices, California, USA). […]
Square brackets hold non-standard residues; d marks the D form. Peptide text beside a SMILES is read from it.
quantity_measured: Hemolysis percent, 100 μM (%)

molecule="CC(C)[C@@H](NC(=O)[C@H](N)Cc1c[nH]c2ccccc12)C(=O)N[C@@H](C(=O)N[C@@H](C(=O)N[C@@H](C(=O)N[C@H](Cc1c[nH]c2ccccc12)C(=O)N[C@H](CCCNC(=N)N)C(=O)N[C@H](CCCNC(=N)N)C(=O)N[C@H](CCCNC(=N)N)C(N)=O)C(C)C)C(C)C)C(C)C [WCopW44] (H-[dW][dV][dV][dV][dV][dW][dR][dR][dR]-NH2)" observed_measurement=4.48
molecule="CC[C@@H](C)[C@@H](NC(=O)[C@H](N)Cc1c[nH]c2ccccc12)C(=O)N[C@@H](C(=O)N[C@H](Cc1c[nH]c2ccccc12)C(=O)N[C@@H](C(=O)N[C@H](Cc1c[nH]c2ccccc12)C(=O)N[C@H](CCCNC(=N)N)C(=O)N[C@H](CCCNC(=N)N)C(=O)N[C@H](CCCNC(=N)N)C(N)=O)[C@H](C)CC)[C@H](C)CC [WCopW61] (H-[dW][dI][dI][dW][dI][dW][dR][dR][dR]-NH2)" observed_measurement=11.6
molecule="CC[C@@H](C)[C@@H](NC(=O)[C@@H](Cc1c[nH]c2ccccc12)NC(=O)[C@H](NC(=O)[C@@H](CC(C)C)NC(=O)[C@H](N)Cc1c[nH]c2ccccc12)C(C)C)C(=O)N[C@H](Cc1c[nH]c2ccccc12)C(=O)N[C@H](CCCNC(=N)N)C(=O)N[C@H](CCCNC(=N)N)C(=O)N[C@H](CCCCN)C(=O)N[C@H](CCCNC(=N)N)C(N)=O [WCopW28] (H-[dW][dL][dV][dW][dI][dW][dR][dR][dK][dR]-NH2)" observed_measurement=5.26

* * *

# test_protocol: Maximum soluble concentration / turbidity
# Type: physicochemical
# protocol_conditions: distilled water
Ends that are not written are not given here.
quantity_measured: solubility

substance="GVLVWFRRR-NH2 [Ptg C-ter 2]" quantity_measured=solubility observed_measurement="< 500 µM"
substance="GVWVLFRRR-NH2 [Ptg C-ter 3]" quantity_measured=solubility observed_measurement="< 500 µM"

* * *

Recorded Hemolysis percent, 50 μM, one value per entry.
# Test system: human red blood cells
# test_protocol: Hemolytic activity
# Format: cell-based
# protocol_conditions: red cells of human, 18 h, 50
Ends that are not written are not given here.
quantity_measured: Hemolysis percent, 50 μM

substance="GVLVLFRRR-NH2 [Ptg C-ter 1]" system_under_test="human red blood cells" observed_measurement="0.99 ±0.26%"
substance="WLLWIALRKKR-NH2 [WCopW2]" system_under_test="human red blood cells" observed_measurement=11.43%
substance="WLVWVWRRR-NH2 [Hybrid-3]" system_under_test="human red blood cells" observed_measurement="5.14 ±0.19%"
substance="GVLVWFRRR-NH2 [Ptg C-ter 2]" system_under_test="human red blood cells" observed_measurement="1.14 ±0.02%"
substance="RLWWRWIVR-NH2 [HLWCopW29-4]" system_under_test="human red blood cells" observed_measurement="1.08 ±0.04%"
substance="LLLLLWRRR-NH2 [AcWL-2]" system_under_test="human red blood cells" observed_measurement="15.13 ± 2.05%"
substance="GVWVLFRRR-NH2 [Ptg C-ter 3]" system_under_test="human red blood cells" observed_measurement="0.80 ±0.09%"
substance="WLVWIWRRR-NH2 [LWCopW29]" system_under_test="human red blood cells" observed_measurement="5.15 ±0.15%"
substance="WLLWIALRKKR-NH2 [WCopW1]" system_under_test="human red blood cells" observed_measurement=10.46%
substance="WLVWVGRRR-NH2 [Hybrid-1]" system_under_test="human red blood cells" observed_measurement="1.09 ±0.32%"
substance="WLRRWWIRV-NH2 [HLWCopW29-2]" system_under_test="human red blood cells" observed_measurement="4.13 ±0.28%"
substance="WLLLLWRRR-NH2 [AcWL-3]" system_under_test="human red blood cells" observed_measurement="19.80 ±0.76%"
substance="WRLWRWIVR-NH2 [HLWCopW29-3]" system_under_test="human red blood cells" observed_measurement="1.37 ±0.02%"
substance="RWLRWWIRV-NH2 [HLWCopW29-1]" system_under_test="human red blood cells" observed_measurement="1.35 ±0.11%"
substance="WLVWIGRRR-NH2 [Hybrid-2]" system_under_test="human red blood cells" observed_measurement="1.21 ±0.01%"
